Cited source for all entries: ChEMBL document CHEMBL1201862

STUDY_TARGET: Induced myeloid leukemia cell differentiation protein Mcl-1 (Homo sapiens)
Sequence (Q07820 whole entry): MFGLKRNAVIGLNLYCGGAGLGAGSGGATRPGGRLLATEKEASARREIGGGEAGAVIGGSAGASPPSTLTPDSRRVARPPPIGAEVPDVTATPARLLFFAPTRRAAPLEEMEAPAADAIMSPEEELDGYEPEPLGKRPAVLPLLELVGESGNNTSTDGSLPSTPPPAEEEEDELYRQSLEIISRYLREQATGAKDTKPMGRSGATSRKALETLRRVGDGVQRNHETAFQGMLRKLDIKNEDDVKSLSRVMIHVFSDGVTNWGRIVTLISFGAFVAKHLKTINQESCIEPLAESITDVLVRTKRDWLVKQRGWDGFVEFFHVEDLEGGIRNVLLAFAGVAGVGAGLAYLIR
Type: functional
Calls of active or inactive are those of the source.
METRIC_NAME: IC50

Look over these answered cases.
[[record]]
molecule = "Nc1cc2nc[nH]c2cc1N"
result = "> 54 µM (not active)"

[[record]]
molecule = "O=C(Nc1nc(-c2ccco2)c(-c2ccco2)s1)C1CC(=O)N(c2ccc3c(c2)OCCO3)C1 (stereo unspecified)"
result = "4.4 µM (active)"

[[record]]
molecule = "CN1CCN(c2ccc(Cl)cc2NC(=O)c2ccc(S(=O)(=O)N3CCCCCC3)cc2)CC1"
result = "3.55 µM (active)"

[[record]]
molecule = "CC(=O)Nc1ccc(C2=NN=C(Nc3cccc(S(=O)(=O)N(C)C)c3)SC2)cc1"
result = "4.2 µM (active)"

[[record]]
molecule = "COc1ccc(N2CCN(C(=O)c3ccc(CSc4ccccc4)cc3)CC2)cc1"
result = "4.83 µM (not active)"


Next molecule, IC50 to be filled in.
Per the record, CCCCN1C(=O)/C(=C/C=C/c2ccco2)C(=O)NC1=S has IC50 of 2.18 µM (active)

----------
STUDY_TARGET: Sentrin-specific protease 8 (Homo sapiens, UniProt Q96LD8);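 note: kinetic enzyme assay of SENP8 cleaving a Nedd8 protein substrate, dose-response confirmation of screening hits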
Sequence (Q96LD8 whole entry): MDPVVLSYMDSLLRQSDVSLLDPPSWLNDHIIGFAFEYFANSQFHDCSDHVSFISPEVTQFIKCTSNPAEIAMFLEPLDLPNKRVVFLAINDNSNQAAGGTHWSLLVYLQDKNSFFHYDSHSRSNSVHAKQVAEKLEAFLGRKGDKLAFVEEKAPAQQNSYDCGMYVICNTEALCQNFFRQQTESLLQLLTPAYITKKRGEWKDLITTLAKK
Format: functional
Calls of active or inactive are those of the source.
METRIC_NAME: IC50

[[record]]
molecule = "CN(C)CCN(C(=O)c1ccc(N2C(=O)CCC2=O)cc1)c1nc2cc3c(cc2s1)OCO3"
result = "24.4 µM (active)"

[[record]]
molecule = "COc1ccc2c(c1)Cc1sc(NC(C)=O)nc1-2"
result = "6.35 µM (active)"

[[record]]
molecule = "Cc1ccc(/C=N/c2ccc(N(C)C)cc2)o1"
result = "18.1 µM (active)"


Next molecule, IC50 to be filled in.
Per the record, O=S1(=O)NC2c3ccccc3CC2O1 (centres undefined) has IC50 of 9.78 µM (active)

----------
STUDY_TARGET: Estrogen receptor (Homo sapiens);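 note: potency for inhibiting coactivator peptide recruitment to the receptor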
Sequence (P03372 whole entry): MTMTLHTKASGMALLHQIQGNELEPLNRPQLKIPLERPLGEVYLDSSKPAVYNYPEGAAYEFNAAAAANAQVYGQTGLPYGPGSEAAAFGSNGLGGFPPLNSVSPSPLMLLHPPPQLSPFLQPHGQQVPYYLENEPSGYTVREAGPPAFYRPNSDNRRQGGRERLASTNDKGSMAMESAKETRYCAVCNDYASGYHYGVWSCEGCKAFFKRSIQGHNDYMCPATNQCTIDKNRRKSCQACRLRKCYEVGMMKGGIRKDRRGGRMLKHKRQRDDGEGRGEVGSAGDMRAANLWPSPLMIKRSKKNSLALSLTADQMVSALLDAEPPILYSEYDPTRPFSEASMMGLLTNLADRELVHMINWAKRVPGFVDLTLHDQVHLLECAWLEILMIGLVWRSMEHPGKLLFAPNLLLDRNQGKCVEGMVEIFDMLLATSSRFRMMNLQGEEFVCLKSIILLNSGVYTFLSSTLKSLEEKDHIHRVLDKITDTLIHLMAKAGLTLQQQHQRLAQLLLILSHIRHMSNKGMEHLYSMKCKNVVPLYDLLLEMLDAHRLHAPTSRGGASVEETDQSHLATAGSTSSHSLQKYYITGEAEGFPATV
Calls of active or inactive are those of the source.
METRIC_NAME: IC50

[[record]]
compound = "O=C(COC(=O)CC1CCCC1)Nc1cc2c(cc1Cl)C(=O)c1ccccc1C2=O"
metric_name = "IC50"
result = "22.3 µM (active)"

[[record]]
compound = "O=C(COC(=O)CCOc1ccccc1)NCc1ccco1"
metric_name = "IC50"
result = "16.6 µM (active)"

[[record]]
compound = "CCSc1nnc(NC(=O)C2Cc3ccccc3CN2C(=O)c2ccco2)s1 (centres undefined)"
metric_name = "IC50"
result = "7.47 µM (active)"


Next compound, IC50 to be filled in.
Per the record, Cc1onc(-c2ccccc2Cl)c1C(=O)NCc1cccnc1 has IC50 of > 50 µM (not active)

----------
compounds and their reported IC50
STUDY_TARGET: Nonstructural protein 1 (Influenza A virus, UniProt Q194T2)
Sequence (Q194T2 whole entry): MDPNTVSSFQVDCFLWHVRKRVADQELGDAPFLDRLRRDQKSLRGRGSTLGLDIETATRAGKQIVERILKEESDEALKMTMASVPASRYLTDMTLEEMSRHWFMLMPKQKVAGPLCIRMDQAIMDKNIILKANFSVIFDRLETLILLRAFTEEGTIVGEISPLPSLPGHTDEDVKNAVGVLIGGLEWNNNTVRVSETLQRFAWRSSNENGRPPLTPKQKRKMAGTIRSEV
Assay type: functional, Influenza A virus (A/California/07/2009(H1N1))
The source made the active and inactive calls.

Look over these answered cases.
[[record]]
compound = "c1ccc(-c2nnc(-c3ccccn3)nc2NC2CCCCC2)cc1"
study_target = "Nonstructural protein 1 (Influenza A virus, UniProt Q194T2)"
result = "1.21 µM (active)"

[[record]]
compound = "COc1ccc(N2CCN(CCCNC(=O)c3cc4sccc4n3C)CC2)cc1"
study_target = "Nonstructural protein 1 (Influenza A virus, UniProt Q194T2)"
result = "39.4 µM (active)"

[[record]]
compound = "CC(=NNC(=S)N(Cc1ccccn1)Cc1ccccn1)c1cnccn1"
study_target = "Nonstructural protein 1 (Influenza A virus, UniProt Q194T2)"
result = "1.18 µM (active)"


Per the record, CC1CCCN(C(=O)c2ccc3c(c2NCCO)C(=O)c2ccccc2C3=O)C1 (stereo not given) has IC50 of 22 µM (active)

Per the record, CCN1/C(=C/C=C/C=C/C=C/c2sc3ccccc3[n+]2CC)Sc2ccccc21 has IC50 of 5.73 µM (active)
